Can you tell me SI (selectivity index), IC50 (L-02)/IC50 (BEL-7402) for the items I'm about to list?
test system: BEL-7402 liver cancer cell; experiment: MTT anti-proliferative assay, BEL-7402; type: cell-based, human

Qu. Query (compound): N#C/C(=C\c1ccc(/C=C/C(=O)c2ccc(F)cc2)cc1)c1ccc(OC(F)(F)F)cc1 ; field requested: SI (selectivity index), IC50 (L-02)/IC50 (BEL-7402)
Ans. > 1.2

Qu. Query (compound): CCc1ccc(/C=C(\C#N)c2cccc(OC(F)(F)F)c2)cc1 ; field requested: SI (selectivity index), IC50 (L-02)/IC50 (BEL-7402)
Ans. > 2.2

Qu. Query (compound): N#C/C(=C\c1ccccn1)c1cccc(OC(F)(F)F)c1 ; field requested: SI (selectivity index), IC50 (L-02)/IC50 (BEL-7402)
Ans. > 5.2

Qu. Query (compound): COc1ccc(/C(C#N)=C/c2cc(OC)c(OC)c(OC)c2)cc1 ; field requested: SI (selectivity index), IC50 (L-02)/IC50 (BEL-7402)
Ans. > 1.0

Qu. Query (compound): Cc1ccc(/C=C(\C#N)c2ccccc2OC(F)(F)F)cc1 ; field requested: SI (selectivity index), IC50 (L-02)/IC50 (BEL-7402)
Ans. > 5.7

====

Tested on: MGC-803 late stage differentiation gastric cancer cell
Experiment: MTT anti-proliferative assay, MGC-803
Assay type: cell-based, human
Method: The anti-proliferation activities of the synthesized analogs were assessed by an in vitro MTT assay conducted on thirteen human cell lines. Their cytotoxic activities were evaluated by measuring the inhibition of net cell growth. […] 1.6. Cell lines and cell culture MTT was purchased from Sigma-Aldrich Co. (St. Louis, MO, USA). The PI and Annexin V-FITC apoptosis detection kit were purchased from Invitrogen (Eugene, OR, USA). […] the anti-proliferative activities were determined by MTT assay. […]
Marks after values point to notes of the source that are not given here.
MEASURED_METRIC: SI (selectivity index), IC50 (L-02)/IC50 (MGC-803)

Qu. Under MGC-803 late stage differentiation gastric cancer cell: SI (selectivity index), IC50 (L-02)/IC50 (MGC-803) value of N#C/C(=C\c1ccc(Br)cc1)c1cccc(OC(F)(F)F)c1 ?
Ans. > 4.9

Qu. Under MGC-803 late stage differentiation gastric cancer cell: SI (selectivity index), IC50 (L-02)/IC50 (MGC-803) value of CCc1ccc(/C=C(\C#N)c2ccc(OC(F)(F)F)cc2)cc1 ?
Ans. > 1.7

Qu. Under MGC-803 late stage differentiation gastric cancer cell: SI (selectivity index), IC50 (L-02)/IC50 (MGC-803) value of CCN(CC)c1ccc(/C=C(\C#N)c2cc(OC)c(OC)c(OC)c2)cc1 ?
Ans. > 819

Qu. Under MGC-803 late stage differentiation gastric cancer cell: SI (selectivity index), IC50 (L-02)/IC50 (MGC-803) value of N#C/C(=C\c1ccc(/C=C/C(=O)c2ccc(F)cc2)cc1)c1ccc(OC(F)(F)F)cc1 ?
Ans. > 1.1

Qu. Under MGC-803 late stage differentiation gastric cancer cell: SI (selectivity index), IC50 (L-02)/IC50 (MGC-803) value of COc1ccc(/C=C\c2cc(OC)c(OC)c(OC)c2)cc1O [CA-4, combretastatin A-4, reference compound] ?
Ans. > 18.3^c

Qu. Under MGC-803 late stage differentiation gastric cancer cell: SI (selectivity index), IC50 (L-02)/IC50 (MGC-803) value of COc1ccc(/C(C#N)=C/c2cc(OC)c(OC)c(OC)c2)cc1 ?
Ans. > 5.7

Qu. Under MGC-803 late stage differentiation gastric cancer cell: SI (selectivity index), IC50 (L-02)/IC50 (MGC-803) value of N#C/C(=C\c1ccc(Cl)cc1)c1ccccc1OC(F)(F)F ?
Ans. > 3.4

Qu. Under MGC-803 late stage differentiation gastric cancer cell: SI (selectivity index), IC50 (L-02)/IC50 (MGC-803) value of N#C/C(=C\c1ccc(N2CCOCC2)cc1)c1cccc(OC(F)(F)F)c1 ?
Ans. > 2.6

Qu. Under MGC-803 late stage differentiation gastric cancer cell: SI (selectivity index), IC50 (L-02)/IC50 (MGC-803) value of COc1ccc(/C(C#N)=C/c2ccc(N(C)C)cc2)cc1 ?
Ans. > 6.6

Qu. Under MGC-803 late stage differentiation gastric cancer cell: SI (selectivity index), IC50 (L-02)/IC50 (MGC-803) value of CN(C)c1ccc(/C=C(\C#N)c2cccc(OC(F)(F)F)c2)cc1 ?
Ans. > 13.9

Qu. Under MGC-803 late stage differentiation gastric cancer cell: SI (selectivity index), IC50 (L-02)/IC50 (MGC-803) value of Cc1ccc(/C=C(\C#N)c2ccccc2OC(F)(F)F)cc1 ?
Ans. > 7.6

Qu. Under MGC-803 late stage differentiation gastric cancer cell: SI (selectivity index), IC50 (L-02)/IC50 (MGC-803) value of Cc1ccc(/C=C(\C#N)c2cccc(OC(F)(F)F)c2)cc1 ?
Ans. > 4.8

Qu. Under MGC-803 late stage differentiation gastric cancer cell: SI (selectivity index), IC50 (L-02)/IC50 (MGC-803) value of N#C/C(=C\c1ccc(Cl)cc1)c1ccc(OC(F)(F)F)cc1 ?
Ans. > 2.8

Qu. Under MGC-803 late stage differentiation gastric cancer cell: SI (selectivity index), IC50 (L-02)/IC50 (MGC-803) value of COc1ccc(/C=C(\C#N)c2ccccc2OC(F)(F)F)cc1 ?
Ans. > 14.2

Reference source for all entries: paper PMC11071649
